Compiled notes: published log10 IC50 values involving 3',5'-cyclic-AMP phosphodiesterase 4B (Homo sapiens, UniProt Q07343).
endpoint_name: log10 IC50 (log10 of the value in nM)

> print(dat)
                                    molecule  measured.number
 1  O=C(Nc1nc2ccc(F)cc2s1)c1ccc(OC(F)F)c(OCC2CC2)c1             0.27
 2         CCOc1ccc(/C=C2\SC(=S)NC2=O)cc1OCC             3.81
 3  O=C(O)Cc1ccc(Nc2nc(-c3ccc(-c4ccccc4)cc3)nc3c2S(=O)(=O)CCC3)cc1             1.58
 4  O=C(c1ccc(-c2c(F)cccc2F)o1)N1CCCc2ccccc21             4.18
 5  C=CCc1c(C)nc(-c2ccc(OC)cc2)nc1Nc1ccc(C(=O)O)cc1             2.34
 6  COc1ccc(-c2ccc(C(=O)N3CCc4ccccc4C3)o2)cc1             3.41
 7       CCn1c(NC(C)C)nc2c(C3CCNCC3)csc2c1=O             4.15
 8  COc1ccc(C(=O)Cc2c(Cl)cncc2Cl)c2cc(C(F)(F)F)nn12             0.46
 9  CSc1ccc(C(=O)Nc2c(Cl)cncc2Cl)c2cc(C(F)(F)F)nn12            -0.96
10  CCN(CC)C(=O)C1Cc2cc(OC)c(OC3CCCC3)cc2CN1C(=O)c1ccc(OC(F)(F)F)cc1 (stereo not drawn)             4.10
11  N#CCCc1ccc(OCc2cc(-c3cccc(OC(F)F)c3)c3ncccc3c2)cc1             1.76
12        C=CCOc1cc(/C=C2\SC(=S)NC2=O)ccc1OC             3.49
13  NC(=O)c1c(NC(=O)c2ccccc2[N+](=O)[O-])sc2c1CCCC2             3.10
